Target: T1, rhNR10 (recombinant human NR10) (human, UniProt Q8NI17 20-519, limits assumed)
T1 construct: also called IL-31 receptor; IL31RA
T1 sequence: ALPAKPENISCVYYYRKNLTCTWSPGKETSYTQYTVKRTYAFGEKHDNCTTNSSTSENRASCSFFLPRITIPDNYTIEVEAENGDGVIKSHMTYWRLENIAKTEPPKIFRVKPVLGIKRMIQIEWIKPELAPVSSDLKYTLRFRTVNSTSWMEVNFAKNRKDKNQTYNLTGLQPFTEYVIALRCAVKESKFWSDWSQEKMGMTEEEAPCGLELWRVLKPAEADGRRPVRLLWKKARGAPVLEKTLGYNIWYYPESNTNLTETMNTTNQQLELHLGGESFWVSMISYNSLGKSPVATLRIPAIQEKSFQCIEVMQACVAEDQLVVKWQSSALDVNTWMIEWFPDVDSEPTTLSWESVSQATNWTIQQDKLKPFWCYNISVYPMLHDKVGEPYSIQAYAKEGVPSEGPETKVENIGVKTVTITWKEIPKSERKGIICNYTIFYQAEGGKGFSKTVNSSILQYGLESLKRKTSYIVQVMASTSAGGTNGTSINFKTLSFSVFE
Assay: SPR, Biacore T100; antibody captured on Protein A, rhNR10 as analyte
readout-kind: koff (s⁻¹)
The figure you give is taken to be in s⁻¹; do not add the unit.

Inquiry: Give the reported koff for this binder. H92L17 (H92-M58 / L17) (antibody, V domains shown) VH: QVQLVQSGAEVKKPGASVKVSCKASGYTFTGYAMNWVRQAPGQGLEWMGLINPYNGGTDYNPQFQGRVTITADKSTSTAYMELSSLRSEDTAVYYCARDGYDDGPYTLETWGQGTLVTVSS VL: DIQMTQSPSSLSASVGDRVTITCQASEDIYSFVAWYQQKPGKAPKLLIYNAQTEAQGVPSRFSGSGSGTDFTLTISSLQPEDFATYYCQHHYDSPLTFGGGTKVEIKR
Reply text: 0.0013
